Assay: Half life in CD-1 mouse liver microsomes at 1 uM preincubated for 10 mins followed by NADPH addition measured up to 60 mins by LC/MS/MS analysis
Format: ADME, Microsome
Endpoint label: half-life at 1 µM

Request the reported half-life at 1 µM associated with O=C(O)[C@H]1C2CCC(CC2)[C@@H]1Nc1nc(-c2c[nH]c3ncc(F)cc23)nc2sccc12 61.1 min

Field entry: O=C(O)[C@H]1C2CCC(CC2)[C@@H]1Nc1nc(-c2n[nH]c3ncc(F)cc23)nc2ccsc12 41 min

And for O=C(O)[C@H]1C2CCC(CC2)[C@@H]1Nc1nc(-c2n[nH]c3ncc(F)cc23)nc2c1SCC2 ? 103 min

And for O=C(O)[C@H]1C2CCC(CC2)[C@@H]1Nc1nc(-c2n[nH]c3ncc(F)cc23)nc2sccc12 ? 33 min

Now try O=C(O)[C@H]1C2CCC(CC2)[C@@H]1Nc1nc(-c2c[nH]c3ncc(F)cc23)ncc1F . > 145 min

Now consider O=C(O)[C@H]1C2CCC(CC2)[C@@H]1Nc1nc(-c2c[nH]c3ncc(F)cc23)nc2c1SCC2 . 51.3 min

Moving on to the next molecule: O=C(O)[C@H]1C2CCC(CC2)[C@@H]1Nc1nc(-c2c[nH]c3ncc(F)cc23)nc2ccsc12 48.5 min

###

Experiment: Half life in human liver microsomes at 1 uM preincubated for 10 mins followed by NADPH addition measured up to 60 mins by LC/MS/MS analysis
Assay type: ADME, Microsome
Endpoint label: half-life at 1 µM (min)
Form entry: value (min) — number only.

Bench note: what half-life at 1 µM did O=C(O)[C@H]1C2CCC(CC2)[C@@H]1Nc1nc(-c2c[nH]c3ncc(F)cc23)nc2sccc12 show? 104

For O=C(O)[C@H]1C2CCC(CC2)[C@@H]1Nc1nc(-c2n[nH]c3ncc(F)cc23)nc2sccc12 then? 71

Field entry: O=C(O)[C@H]1C2CCC(CC2)[C@@H]1Nc1nc(-c2c[nH]c3ncc(F)cc23)nc2ccsc12 49.7

Moving on to the next molecule: O=C(O)[C@H]1C2CCC(CC2)[C@@H]1Nc1nc(-c2n[nH]c3ncc(F)cc23)nc2ccsc12 77

Now the same for O=C(O)[C@H]1C2CCC(CC2)[C@@H]1Nc1nc(-c2c[nH]c3ncc(F)cc23)nc2c1SCC2 99.6

###

Experiment: Cytotoxicity against MDCK cells assessed as reduction in cell viability after 5 days by CCK-8 assay
Type: cell-based, Canis lupus familiaris
Conditions: dog
Endpoint label: CC50 at 120 h

Quick one: CC50 at 120 h for O=C(O)[C@H]1C2CCC(CC2)[C@@H]1Nc1nc(-c2c[nH]c3ncc(F)cc23)ncc1F ? 12 µM

Item: O=C(O)[C@H]1C2CCC(CC2)[C@@H]1n1ccc2cnc(-c3c[nH]c4ncc(F)cc34)nc21 4 µM

Another compound to check: O=C(O)[C@H]1C2CCC(CC2)[C@@H]1Nc1nc(-c2c[nH]c3ccc(F)cc23)ncc1F 10 µM

Moving on to Cc1cnc2c(N[C@H]3C4CCC(CC4)[C@@H]3C(=O)O)nc(-c3c[nH]c4ncc(F)cc34)nc2c1 4.9 µM

Field entry: O=C(O)[C@H]1C2CCC(CC2)[C@@H]1n1cnc2cnc(-c3c[nH]c4ncc(F)cc34)nc21 21.7 µM

How about O=C(O)[C@H]1C2CCC(CC2)[C@@H]1Nc1nc(-c2c[nH]c3ncc(F)cc23)nc2c1CS(=O)(=O)C2 ? > 50 µM

Entry O=C(O)[C@H]1C2CCC(CC2)[C@@H]1Nc1nc(-c2n[nH]c3ncc(F)cc23)nc2c1SCC2 please 4.9 µM

Can you handle O=C(O)[C@H]1C2CCC(CC2)[C@@H]1Nc1nc(-c2c[nH]c3ncc(F)cc23)nc2cscc12 next? > 50 µM

Can you handle O=C(O)[C@H]1C2CCC(CC2)[C@@H]1Nc1nc(-c2c[nH]c3ncc(F)cc23)nc2c1CSC2 next? 4.4 µM

Moving on to the next compound: O=C(O)[C@H]1C2CCC(CC2)[C@@H]1Nc1nc(-c2c[nH]c3ncc(F)cc23)nc2ccoc12 6.2 µM

Also check O=C(O)[C@H]1C2CCC(CC2)[C@@H]1Nc1nc(-c2c[nH]c3ncc(F)cc23)nc2[nH]ccc12 15 µM

Now this one: O=C(O)[C@H]1C2CCC(CC2)[C@@H]1Nc1nc(-c2c[nH]c3ncc(F)cc23)nc2cccnc12 7 µM

Quick one: Cc1cccc2nc(N[C@H]3C4CCC(CC4)[C@@H]3C(=O)O)nc(-c3c[nH]c4ncc(F)cc34)c12 2.1 µM

And for O=C(O)[C@H]1C2CCC(CC2)[C@@H]1Nc1nc(-c2c[nH]c3ncc(F)cc23)nc2c1CCCC2 ? > 50 µM

Repeat with O=C(O)[C@H]1C2CCC(CC2)[C@@H]1Nc1nc(-c2c[nH]c3ncc(F)cc23)nc2ccsc12 1.5 µM

Now this one: O=C(O)[C@H]1C2CCC(CC2)[C@@H]1Nc1nc(-c2c[nH]c3ncc(F)cc23)nc2scnc12 1.5 µM

And the next one, O=C(O)[C@H]1C2CCC(CC2)[C@@H]1Nc1nc(-c2c[nH]c3ncc(F)cc23)nc2nccnc12 ? 46 µM

###

Experiment: Half life in Sprague-Dawley rat liver microsomes at 1 uM preincubated for 10 mins followed by NADPH addition measured up to 60 mins by LC/MS/MS analysis
Format: ADME, Microsome
Give half-life at 1 µM for every item shown.
Give the value in h but do not write h after it.

Fill in the blank: the reported half-life at 1 µM of O=C(O)[C@H]1C2CCC(CC2)[C@@H]1Nc1nc(-c2n[nH]c3ncc(F)cc23)nc2ccsc12 is ____. 1.22

Another compound: O=C(O)[C@H]1C2CCC(CC2)[C@@H]1Nc1nc(-c2c[nH]c3ncc(F)cc23)nc2ccsc12 0.87

Ok, now O=C(O)[C@H]1C2CCC(CC2)[C@@H]1Nc1nc(-c2c[nH]c3ncc(F)cc23)nc2sccc12 1.52

###

Experiment: Cmax in CD-1 mouse at 10 mg/kg, po
Type: ADME, organism-based
Parameters: dose 10 mg/kg, route oral
Conditions: in vivo
Endpoint label: Cmax
# include the unit after the value

Would you mind telling me what Cmax value was observed for O=C(O)[C@H]1C2CCC(CC2)[C@@H]1Nc1nc(-c2c[nH]c3ncc(F)cc23)ncc1F [PIMODIVIR] ? 2.05 µM

// repeat for O=C(O)[C@H]1C2CCC(CC2)[C@@H]1Nc1nc(-c2c[nH]c3ncc(F)cc23)nc2c1SCC2 and report 15 µM

What do you have for O=C(O)[C@H]1C2CCC(CC2)[C@@H]1Nc1nc(-c2n[nH]c3ncc(F)cc23)nc2c1SCC2 ? 32.6 µM

The measured values listed here are drawn from ChEMBL document CHEMBL4325902.
